System: T-47D breast
ASSAY NOTES: NCI-60 one-dose screen, 48 h
PROTOCOL CONDITIONS: 10 µM unless noted
Method: Growth inhibition of the T-47D human tumor cell line is measured as a screen for anti-cancer activity. Cells are grown in 96 well plates and exposed to the test compound for 48 hours. Compounds are tested at a single concentration, which is 10^-5 M for most compounds. The reported endpoint is percent growth (GI% or GIPRCNT), where numbers from 0 - 100% represent growth inhibition, and numbers from -100% - 0 represent cell death. For example, a value of 40 represents 60% growth inhibition. […]
The panel holds about 83,000 compounds, 20% with a hit somewhere; the sample as a whole holds those more often. Calls of active or inactive are those of the source. The calls were made as follows: active = growth percent below 10; inactive = the rest.
Classes to choose from: active, inactive

Reference set (5 entries):
Assay outcome for CCC(=C(c1ccc(OCCN2CCCCC2)cc1)c1ccc(OCCN2CCCCC2)cc1)c1ccc(Cl)cc1 : what was it?
active

Please answer likewise for Oc1c(I)cc(I)cc1CNCCN(Cc1ccccn1)Cc1ccccn1
active

Query O=C(CSC(=S)n1cnnc1)NC(=O)c1ccccc1 next
inactive

Same for CCC(C)(C)C(=O)O[C@H]1C[C@@H](C)C=C2C=C[C@H](C)[C@H](CC[C@@H]3CC(SCCN)CC(=O)O3)[C@H]21 (some centres not stated)
inactive

Then this compound: CSc1nc(N)c(NS(=O)(=O)c2ccc(C(C)=O)cc2)c(=O)[nH]1
inactive

Moving on to the next compound.
# fetch the recorded call for O=c1[nH]c(-c2ccccc2)nc2sc3cc(O)ccc3c12 here
inactive

---

System: UACC-62 melanoma
ASSAY NOTES: NCI-60 one-dose screen, 48 h
PROTOCOL CONDITIONS: 10 µM unless noted
The panel holds about 83,000 compounds, 20% with a hit somewhere; the sample as a whole holds those more often. Activity calls are given as the source filed them. The calls were made as follows: active = growth percent below 10; inactive = the rest.
Please answer using one outcome listed in active, inactive

Per the records of this test, what outcome belongs to CCC(C(=O)[C@@H](C)[C@@H](O)[C@H](C)[C@@H]1O[C@@H]([C@@H](CC)C(=O)ONC(=O)c2ccccc2)CC[C@@H]1C)[C@H]1O[C@]2(C=CC(=O)[C@]3(CC[C@@](C)([C@H]4CC[C@](O)(CC)[C@H](C)O4)O3)O2)[C@H](C)C[C@@H]1C (stereo partly specified) ?
active

Quick one: COCCn1cc(-c2csc(-c3cn(C)c4ccc(Br)cc34)n2)c2cccnc21
inactive

// repeat for COc1cc(/C=C2/C=C(c3ccccc3)N(CCc3ccc(S(N)(=O)=O)cc3)C2=O)cc(OC)c1OC and report
inactive

Let us now turn to CC(=O)/C(=C\c1c(-c2ccccc2)[nH]c2ccccc12)S(C)(=O)=O
inactive

Record: COC(=O)/C=C1/SC(=Nc2cccc(OC)c2)N(CCc2c[nH]c3ccc(O)cc23)C1=O
inactive

New cases:
So what was the verdict on O=C(CSc1nc2ccc([N+](=O)[O-])cc2[nH]1)Nc1ccc([N+](=O)[O-])cc1 in this test?
active

---

Please go through the items and note down their growth.
Test system: OVCAR-5 ovarian
ASSAY NOTES: NCI-60 one-dose screen, 48 h (100 = growth as untreated, 0 = no growth, -100 = all killed)
PROTOCOL CONDITIONS: 10 µM unless noted
Compounds without any hit were thinned out: in the full panel of roughly 83,000, 20% have a hit.
Numbers only, in %.

Example compounds with recorded growth:
Give the measured growth of COc1ccc(C2=Nc3c(N)nc(N)nc3NC(c3cccc(Nc4ccnc5cc(C(F)(F)F)ccc45)c3)C2)cc1 (centres undefined) .
116

Now consider N#Cc1c(-c2ccccc2)cc(-c2ccc(Nc3nc(Nc4ccc(Cl)cc4)nc(Nc4ccc(Cl)cc4)n3)cc2)nc1N .
63.2

For O=C1C(=O)N(Cc2ccc(-c3ccccc3)cc2)c2ccc(OC(F)(F)F)cc21 then?
37.3

What about this compound? CC(C)(Sc1cc(C(C)(C)C)c(OC(=O)CCCC(=O)O)c(C(C)(C)C)c1)Sc1cc(C(C)(C)C)c(OC(=O)CCCC(=O)O)c(C(C)(C)C)c1
76.2

Check O=C(COc1ccc(-c2nc3cc(Cl)c(Cl)cc3[nH]2)cc1)N=Nc1c(O)[nH]c2ccc(Cl)cc12 too.
95.6

Go through the list and state growth for each entry.
1. CCN(CC)CC(O)COc1c(Br)c(Br)c(Br)c2c1OC(C)(C)C2 (centres undefined)
2. Clc1ccc(/C=N\N=C\c2ccc(Cl)c(Cl)c2)cc1Cl

[93.2, 66.9]

Look at each compound and report its growth.
1. CCN1C(=S)N(c2ccccc2)C2C1NN=c1s/c(=C3\C(=O)N(C(C)C)c4ccccc43)c(=O)n12 (centres undefined)
2. Cn1cc(C(=O)c2nc(-c3c[nH]c4ccccc34)no2)c2cc(F)ccc21
3. O=C(c1ccccc1)c1ccc(C2CCCCC2)cc1
4. O=C1NC2(Nc3ccccc31)C(=O)Nc1c(Cl)cc(Cl)cc12 (centres undefined)
5. O=C(Nc1nc(-c2ccc(Cl)cc2)nc2c1sc(=S)n2-c1ccccc1)C(F)(F)F

1. 93.9
2. 68.3
3. 95.4
4. 115
5. 62.6

Record growth per entry; entries follow.
1. Cc1ccc(CNc2ccc3nc(CCC4CCCCC4)[nH]c3c2)cc1
2. Cc1ccc(/C=C2\COc3ccc(O)cc3C2=O)cc1
3. Cc1ccc(C)n1-c1ccccc1-n1c(C)ccc1C
4. O=C(/C=C/c1cn(-c2ccccc2)nc1-c1ccc(Cl)cc1)c1ccc(F)cc1
5. O=C(Nc1ccccc1)Nc1ncnc2c1ncn2-c1ccc(Cl)cc1
6. O=C1c2c(c3c4ccccc4[nH]c3c3ccc4ccccc4c23)C(=O)N1CCN1CCOCC1

57.8
102
118
99.3
74.5
71.7
